Where do these numbers come from? They come from ChEMBL document CHEMBL1155063.

# test_protocol: Cytotoxicity against human H1299 cells at 100 uM after 48 hrs by MTT assay realtive to control
# Format: functional
# condition_context: NCI-H1299, 48 h
property_name: viability at 100 µM (%)
Answers are plain numbers, in %.

Recorded results for 3 compounds are shown here.
{"input_smiles": "O=C(CN1CCNCC1)Nc1ccc2c(c1)C(=O)c1cc(NC(=O)CN3CCNCC3)ccc1C2=O", "readout_unit": "%", "viability at 100 µM": 88}
{"input_smiles": "CCNCCC(=O)Nc1ccc2c(c1)C(=O)c1cc(NC(=O)CCNCC)ccc1C2=O", "readout_unit": "%", "viability at 100 µM": 34}
{"input_smiles": "CN1CCN(CCC(=O)Nc2ccc3c(c2)C(=O)c2cc(NC(=O)CCN4CCN(C)CC4)ccc2C3=O)CC1", "readout_unit": "%", "viability at 100 µM": 39}

// batch mode: one viability at 100 µM value per listed entry
1. O=C1c2ccc([N+](=O)[O-])cc2C(=O)c2cc([N+](=O)[O-])ccc21
2. O=C(CCc1ccccc1)Nc1ccc2c(c1)C(=O)c1cc(NC(=O)CCc3ccccc3)ccc1C2=O
3. CCCCNCC(=O)Nc1ccc2c(c1)C(=O)c1cc(NC(=O)CNCCCC)ccc1C2=O
4. O=C(CCN1CCCC1)Nc1ccc2c(c1)C(=O)c1cc(NC(=O)CCN3CCCC3)ccc1C2=O
5. CCNCC(=O)Nc1ccc2c(c1)C(=O)c1cc(NC(=O)CNCC)ccc1C2=O
6. O=C(CCCCl)Nc1ccc2c(c1)C(=O)c1cc(NC(=O)CCCCl)ccc1C2=O

A.
69
76
15
12
3
22
